Listing of entries alongside the reported OD450.
tested-target: T1, human MSLN-FL-his protein (human, UniProt Q13421 296-580)
T1 construct: Made in HEK293E cells, purified on nickel column; also called hMSLN-FL-his; human MSLN full-length protein; not shown: His tag
T1 sequence (Q13421 other isoform, or with tags, fused parts or gaps): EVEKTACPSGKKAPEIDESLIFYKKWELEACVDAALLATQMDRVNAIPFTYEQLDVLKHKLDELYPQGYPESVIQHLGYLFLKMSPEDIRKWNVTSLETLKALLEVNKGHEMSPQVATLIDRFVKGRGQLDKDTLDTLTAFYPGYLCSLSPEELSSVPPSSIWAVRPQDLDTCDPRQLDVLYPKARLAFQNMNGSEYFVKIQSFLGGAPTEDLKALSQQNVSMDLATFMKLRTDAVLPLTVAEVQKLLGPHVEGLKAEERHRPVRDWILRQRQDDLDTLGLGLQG
assay-overview: ELISA, coated antigen, antibody 0.0002 nM
Format: numeric value only, no unit, no commentary.

S009-F7.61.21 chimeric antibody (antibody, human IgG1, kappa, V domains shown, Human-murine chimeric antibody, human IgG1/kappa constant regions) VH: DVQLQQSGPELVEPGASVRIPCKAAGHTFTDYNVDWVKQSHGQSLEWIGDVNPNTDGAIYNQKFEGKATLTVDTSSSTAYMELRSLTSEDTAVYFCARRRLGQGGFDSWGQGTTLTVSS VL: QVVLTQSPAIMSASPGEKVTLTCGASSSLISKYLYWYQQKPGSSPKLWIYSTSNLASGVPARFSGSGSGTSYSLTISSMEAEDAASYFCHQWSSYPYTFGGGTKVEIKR: 0.09

Consider the record given below.
[ask] Quote OD450 reported for S009-F7.21.16 chimeric antibody (antibody, human IgG1, kappa, V domains shown, Human-murine chimeric antibody, human IgG1/kappa constant regions) VH: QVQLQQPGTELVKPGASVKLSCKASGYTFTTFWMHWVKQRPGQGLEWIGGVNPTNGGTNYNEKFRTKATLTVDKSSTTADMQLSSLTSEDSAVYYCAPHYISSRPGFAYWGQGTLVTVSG VL: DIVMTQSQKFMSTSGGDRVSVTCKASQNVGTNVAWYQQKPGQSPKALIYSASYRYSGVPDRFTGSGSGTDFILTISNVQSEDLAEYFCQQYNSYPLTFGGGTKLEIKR please.
[reply] 0.35
